The measured values listed here are drawn from ChEMBL document CHEMBL5335812.

assay: Stability of the compound assessed as kinetic half life at pH 5.5; assay type: physicochemical; conditions: buffer
READOUT_NAME: half-life (h)
# unit: h | format: bare number

# get_value(readout='half-life', item= CCc1c2c(nc3ccc(OC(=O)N(C)CCN(C)P(=O)(O)OCC[C@H](NC(=O)c4ccc(CN=[N+]=[N-])cc4)C(=O)O)cc13)-c1cc3c(c(=O)n1C2)COC(=O)[C@]3(O)CC )
11

* * *

experiment: Stability of the compound assessed as kinetic half life at pH 6; assay type: physicochemical; conditions: buffer
READOUT_NAME: half-life
State the value with its unit after it.

# get_value(readout='half-life', item= CCc1c2c(nc3ccc(OC(=O)N(C)CCN(C)P(=O)(O)OCC[C@H](NC(=O)c4ccc(CN=[N+]=[N-])cc4)C(=O)O)cc13)-c1cc3c(c(=O)n1C2)COC(=O)[C@]3(O)CC )
42 h

* * *

experiment: Stability of the compound assessed as kinetic half life at pH 5; format: physicochemical; details: buffer
READOUT_NAME: half-life (h)
# unit: h | format: bare number

# get_value(readout='half-life', item= CCc1c2c(nc3ccc(OC(=O)N(C)CCN(C)P(=O)(O)OCC[C@H](NC(=O)c4ccc(CN=[N+]=[N-])cc4)C(=O)O)cc13)-c1cc3c(c(=O)n1C2)COC(=O)[C@]3(O)CC )
4.3

* * *

assay: Stability of the compound assessed as kinetic half life at pH 4.5; format: physicochemical; conditions: buffer
READOUT_NAME: half-life (h)
# unit: h | format: bare number

# get_value(readout='half-life', item= CCc1c2c(nc3ccc(OC(=O)N(C)CCN(C)P(=O)(O)OCC[C@H](NC(=O)c4ccc(CN=[N+]=[N-])cc4)C(=O)O)cc13)-c1cc3c(c(=O)n1C2)COC(=O)[C@]3(O)CC )
1.9
